Tested on: SK-MEL-5
Experiment: NCI tumour cell line growth inhibition, 48 h
The source made the active and inactive calls. Rule as the data show it: active = GI50 up to about 1.1 µM and inactive = higher.
Answer with one of the outcomes given here: true (1) (active), false (0) (inactive)

COMPOUND	STUDY_SYSTEM	ANSWER_LABEL
COc1ccc2c(c1)[n+]([O-])c(-c1c(Cl)cccc1Cl)c(N)[n+]2[O-]	SK-MEL-5	false (0)
COC(=O)C1C(=O)N(C)C(=O)N2CCCC12 (centres undefined)	SK-MEL-5	false (0)
O=C(O)CC1(C(=O)O)CCCCC1	SK-MEL-5	false (0)

Which result was noted for this compound in the test: O=[N+]([O-])c1cccc2nc3ccccc3c(NCCCNc3c4ccccc4nc4cccc([N+](=O)[O-])c34)c12
true (1)

Which result was noted for this compound in the test: COc1cc2nc(-c3cccs3)nc(Nc3ccccc3C(=O)NN)c2cc1OC
false (0)

Which result was noted for this compound in the test: CN(Cc1ccccc1)C(=NC#N)N(C)Cc1ccccc1
false (0)

Which result was noted for this compound in the test: C=C1c2nc3ccccc3n2C=C(c2ccc(OC)cc2)N1c1ccc(OCCN2CCCCC2)cc1
false (0)

Which result was noted for this compound in the test: CC1(C)N=C(N)N=C(N)N1c1cccc(CSc2ccccc2)c1
true (1)

Which result was noted for this compound in the test: CC(=O)c1cnc2oc3ccc(O)cc3c2c1-c1ccccc1
false (0)

Which result was noted for this compound in the test: N#CC(C(=O)C(=O)Nc1ccc(Cl)cc1)c1ccccc1 (centres undefined)
false (0)

Which result was noted for this compound in the test: Clc1ccc2c(NCCCCN3OC3c3ccccc3)ccnc2c1 (centres undefined)
false (0)

Which result was noted for this compound in the test: C=C1c2nc3ccccc3n2C=C(c2ccc(Cl)cc2)N1c1ccc(OCCN2CCCCC2)cc1
false (0)

Which result was noted for this compound in the test: CC(C)CC(=O)CC(C)[C@]1(CCCOCc2ccccc2)C(=O)N2CCC3(C[C@@]24CCC[C@H]41)OCCO3 (some centres undefined)
false (0)

Which result was noted for this compound in the test: Cc1ccc2nc(SCC(=O)N/N=C3\C(=O)Nc4ccccc43)n(-c3ccccc3)c(=O)c2c1
false (0)

###

Tested on: COLO 205
Test: NCI tumour cell line growth inhibition, 48 h
Active and inactive are the calls of the source. No stated cut-off is given here; in the data, active = GI50 up to about 1.1 µM and inactive = higher.
ASSAY_METRIC: GI50

COMPOUND	STUDY_SYSTEM	GI50
C=CCCCC1SC2=C(CC)CCCN2C1=O (stereo not drawn)	COLO 205	54 µM (inactive)
CC(=O)O[C@H]1CC[C@@]2(C)C(=CC[C@H]3[C@@H]4C/C(=C\c5ccncc5)[C@H](OC(C)=O)[C@@]4(C)CC[C@@H]32)C1	COLO 205	4.08 µM (inactive)
CC1=C(C(=O)Nc2cc(F)c(F)cc2F)C(c2ccc([N+](=O)[O-])cc2)C(C(=O)Nc2cc(F)c(F)cc2F)=C(C)N1	COLO 205	71.4 µM (inactive)
O=C(Nc1ccc(Cl)cc1)c1cc(S(=O)(=O)Nc2nc3cccnc3[nH]2)c(SSc2cc(Cl)c(C(=O)Nc3ccc(Cl)cc3)cc2S(=O)(=O)Nc2nc3cccnc3[nH]2)cc1Cl	COLO 205	> 100 µM (inactive)
CC1(C)CC(=O)C(/C(=N/NC(=S)NN)C(=O)Nc2nc3ccc([N+](=O)[O-])cc3s2)C(=O)C1	COLO 205	> 100 µM (inactive)
O=C1Nc2c(Cl)cc(Cl)cc2/C1=N/NC(=O)c1ccncc1	COLO 205	27.2 µM (inactive)

GI50 lookup needed for CS(=O)(=O)N1CC(CCl)c2ccc(O)cc21 (stereo not drawn) , thanks.
1.9 µM (inactive)

GI50 lookup needed for CCOC(=O)C(Cc1c(C=O)[nH]c2ccccc12)(NC(=O)c1ccccc1)C(=O)OCC , thanks.
18.8 µM (inactive)

###

// reported GI50 for each item listed
Test system: OVCAR-5
Assay: NCI tumour cell line growth inhibition, 48 h
The source made the active and inactive calls. Cut-off read from the data, not from the text of the source: active = GI50 up to about 1.1 µM and inactive = higher.

See these solved cases before continuing.
MOLECULE	GI50
C=C1C(C[C@@H]2O[C@H]3C[C@H]4O[C@@]5(C[C@@H]6O[C@]7(C[C@H](C)[C@@H]8O[C@@H]9CC(C(O)CO)O[C@@H]9C[C@@H]8O7)C[C@H](C)[C@@H]6O5)C[C@H]4O[C@H]3[C@H](C)[C@H]2O)O[C@@H](CC[C@@H]2O[C@@H](CC[C@@]34CC5O[C@H]6C(O[C@H]7CC[C@H](CC(=O)OC)O[C@@H]7[C@@H]6O3)[C@H]5O4)CC2=C)C[C@H]1C (stereo partly drawn)	0.00142 µM (active)
COC(=O)[C@]1(C)CCC[C@]2(C)[C@@H](CCC(=O)C(C)C)[C@]3(C=O)O[C@@H]3C[C@H]21	> 100 µM (inactive)
CC(=O)OC12c3ccccc3C1CCCC21OCCCO1 (stereo not drawn)	> 100 µM (inactive)

Give OVCAR-5 GI50 for Cc1ccc2c(c1)[n+]([O-])c(N)n[n+]2[O-]
> 100 µM (inactive)

Give OVCAR-5 GI50 for COC(=O)C1C(=O)N(C)C(=O)N2CCCC12 (stereo not drawn)
> 100 µM (inactive)

Give OVCAR-5 GI50 for COC(=O)C1Cc2c(OC)ccc(OC)c2C(O)C1C(=O)OC (stereo not drawn)
> 100 µM (inactive)

Give OVCAR-5 GI50 for O=C(NC(N1CCN(c2cc3c(cc2F)c(=O)c(C(=O)O)cn3C2CC2)CC1)(C(F)(F)F)C(F)(F)F)c1ccccc1
26.7 µM (inactive)

Give OVCAR-5 GI50 for O=C(NCCCCCCNCc1cccc2ccccc12)Nc1cccc2ccccc12
63.1 µM (inactive)

Give OVCAR-5 GI50 for CSc1cccc(NC(=O)OC2CCCCCCCCCCC2)c1
30.3 µM (inactive)

Give OVCAR-5 GI50 for CC1=CC(=O)/C(=C/NC(=S)c2ccncc2)C(=O)O1
> 100 µM (inactive)

Give OVCAR-5 GI50 for CCOC(=O)C1=C(N)N(c2ccccc2)/C(=C(/C#N)c2nc3ccccc3[nH]2)S1
> 100 µM (inactive)

Give OVCAR-5 GI50 for CC(=O)N[C@@H](Cc1ccc(O)cn1)C(=O)NC1CCCCC1
> 100 µM (inactive)

Give OVCAR-5 GI50 for CCCCN1C(=O)CS/C1=N/Nc1nc2c([nH]1)c(=O)n(C)c(=O)n2C
14.5 µM (inactive)

###

// reported GI50 for each item listed
Test system: Malme-3M
Assay: NCI tumour cell line growth inhibition, 48 h
Active and inactive are the calls of the source. No stated cut-off is given here; in the data, active = GI50 up to about 1.1 µM and inactive = higher.

See these solved cases before continuing.
COMPOUND	EXPERIMENTAL_VALUE
O=C(O)CC1(C(=O)O)CCCCC1	> 100 µM (inactive)
C[C@H]1[C@H](C)CC[C@]2(C(=O)OC3OC(CO)C(O)C(O)C3O)CC[C@]3(C)C(=CC[C@@H]4[C@@]5(C)C[C@@H](O)[C@@H]6OC(=O)c7cc(O)c(O)c(O)c7-c7c(cc(O)c(O)c7O)C(=O)OC[C@]6(CO)[C@@H]5CC[C@]43C)[C@H]12 (stereo partly drawn)	> 100 µM (inactive)

Let us move to another entry and its GI50.
Give Malme-3M GI50 for Cc1c([C@H](C)[C@@H]2NC[C@@H](C)C[C@H]2O)ccc2c1C[C@H]1[C@H]2CC=C2C[C@@H](O)CC[C@@]21C [VERATRAMINE]
16.2 µM (inactive)

###

Test system: SNB-19
Experiment: NCI tumour cell line growth inhibition, 48 h
Active and inactive are the calls of the source. No stated cut-off is given here; in the data, active = GI50 up to about 1.1 µM and inactive = higher.
ASSAY_METRIC: GI50

See these solved cases before continuing.
MOLECULE	GI50
C=CCCCC1SC2=C(CC)CCCN2C1=O (stereo unspecified)	73.5 µM (inactive)
COc1ccc(C2SCC(=O)N2NC(=O)c2ccc(NC(C)=O)cc2)c(OC)c1 (stereo unspecified)	> 100 µM (inactive)
Cc1ccc(C(=O)CC2(O)C(=O)Nc3c(C)cc(Cl)cc32)cc1 (stereo unspecified)	> 100 µM (inactive)
CCOc1ccc(C(=O)/C=C2/Nc3ccccc3N/C2=C/C(=O)c2ccc(OCC)cc2)cc1	> 100 µM (inactive)
COC(=O)C1=C(O)C(C(=O)OC)C2CC(=O)CC1C2(C)C (stereo unspecified)	> 100 µM (inactive)

Let us move to another entry and its GI50.
GI50 lookup needed for NC(CNc1ccc(O)cc1)C(=O)O (stereo unspecified) , thanks.
> 100 µM (inactive)

###

// reported GI50 for each item listed
System: HT-29
Assay: NCI tumour cell line growth inhibition, 48 h
Active and inactive are the calls of the source. No stated cut-off is given here; in the data, active = GI50 up to about 1.1 µM and inactive = higher.

See these solved cases before continuing.
COMPOUND	GI50
C/C(=C\COc1ccc2ccc(=O)oc2c1)CCC(=O)C(C)(C)O	23.2 µM (inactive)
COC(=O)/C(=N\NC(N)=O)C(C#N)c1ccccc1 (stereo not drawn)	> 100 µM (inactive)
CSc1cc(Cl)c(C)cc1S(=O)(=O)NC(=O)Nc1ccc(Cl)cc1	35.2 µM (inactive)
N#CC(C(=O)C(=O)Nc1ccc(Cl)cc1)c1ccccc1 (stereo not drawn)	> 100 µM (inactive)
CCNC(C)Cc1ccccc1 (stereo not drawn)	> 100 µM (inactive)
COc1ccc(-c2oc3cc(O)c(OC)c(O)c3c(=O)c2OC2OC(CO)C(O)C(O)C2O)cc1 (stereo not drawn)	> 100 µM (inactive)
CC1=CC(=O)/C(=C/NC(=S)c2ccncc2)C(=O)O1	> 100 µM (inactive)
Cc1ccsc1/C=N/Nc1nncc2ccccc12	> 100 µM (inactive)
CC(=O)c1cnc2oc3ccc(O)cc3c2c1-c1ccccc1	95.5 µM (inactive)
CC(C)NC(=O)OCc1c(COC(=O)NC(C)C)n(C)c2c1ccc1sccc12	24.2 µM (inactive)

GI50 lookup needed for CCOC(=O)N(C)C(=C(F)F)C(F)(F)F , thanks.
27 µM (inactive)

GI50 lookup needed for O=C(CCN(C(=O)O)S(=O)(=O)c1ccc(NC(=O)c2ccccc2)cc1)NC1CCCCC1 , thanks.
21.6 µM (inactive)

GI50 lookup needed for COC1(OC)CC(CO)(CNc2cc(Cl)nc(N)n2)C1 , thanks.
> 100 µM (inactive)

GI50 lookup needed for Cn1c(=O)c2c(nc3n2CCCC(=O)N3CCCCl)n(C)c1=O , thanks.
> 100 µM (inactive)

GI50 lookup needed for Cc1nc(=O)n2c(C)n[nH]c2c1C(=O)O , thanks.
> 100 µM (inactive)

GI50 lookup needed for Cc1ccc2c(c1)C(=O)C1(C2)Cc2cccc(C)c2C1=O (stereo not drawn) , thanks.
> 100 µM (inactive)

GI50 lookup needed for COc1cc2nc(-c3cccs3)nc(Nc3ccccc3C(=O)NN)c2cc1OC , thanks.
> 100 µM (inactive)

GI50 lookup needed for CC1=NOC(=O)C1/N=N/c1ccc(Br)c(C)c1 (stereo not drawn) , thanks.
36.2 µM (inactive)

GI50 lookup needed for CN(C)CC1CCCCCC(Br)C1=O (stereo not drawn) , thanks.
7.76 µM (inactive)

GI50 lookup needed for COC(=O)C[C@H]1[C@]2(C)C3=C(C)[C@H](c4ccoc4)CC3O[C@@H]2[C@@H]2OC(=O)[C@]3(C)CCC(=O)[C@@]1(C)[C@@H]23 (stereo partly drawn) , thanks.
33.8 µM (inactive)

GI50 lookup needed for CCN1C(NCCO)=NS(=O)(=O)c2ccccc21 , thanks.
> 100 µM (inactive)

GI50 lookup needed for COc1ccc(OC)c2c1C(=O)C(O)=C(Cl)C2=O , thanks.
> 100 µM (inactive)

GI50 lookup needed for COc1cccc(-c2nc(-c3cnccn3)n(COCCO)n2)c1 , thanks.
> 100 µM (inactive)
